Tested on: U251 CNS
Outcome codes: True for active, False for inactive

compound=NCCCOc1cc2ccccc2cc1C(=O)NCCCOc1cc2ccccc2cc1C(=O)Nc1ccc(Cl)cc1O category=True
compound=CNCCn1c(=O)c2cc(OC)c(OC)cc2c2cnc3cc4c(cc3c21)OCO4 category=True
compound="CCOC(=O)C1=C(N)Oc2c(sc3c(C)cccc23)C1c1ccc(F)cc1 (stereo not given)" category=False
compound=Cn1cc(S(=O)(=O)N2CCC3=Cc4c(cnn4-c4ccc(F)cc4)C[C@]3(C(=O)c3cc(C(F)(F)F)ccn3)C2)cn1 category=False
compound=Oc1ccc(Oc2cnc3ccccc3n2)cc1 category=False

* * *

Each entry below lists one item and its recorded TGI value.
Tested on: SNB-19 CNS
Test: NCI tumour cell line growth inhibition, 48 h
READOUT TYPE: TGI

compound=C=C1CCCCCCCCC/C=C/1SCCCSC readout_type=TGI result="> 100 µM"
compound=NCCCN(CCCN)CCc1cn(C(=O)c2ccccc2)cn1 readout_type=TGI result="33.6 µM"
compound=N/C(=N\S(=O)(=O)c1ccc(-c2ncccc2C(F)(F)F)s1)Nc1ccc(Cl)cc1 readout_type=TGI result="34.4 µM"
compound=COCCn1cnc2c(Cl)nc(Nc3ccccc3)nc21 readout_type=TGI result="> 100 µM"
compound=COc1cc(OC)c2sc(-c3ccc(-n4cncc4-c4cc(OC)c(OC)c(OC)c4)cc3)nc2c1 readout_type=TGI result="> 100 µM"
compound="COc1ccc(C2COc3c(ccc(O)c3C)C2)cc1OC (stereo not given)" readout_type=TGI result="> 200 µM"
compound=Cc1ccc(S(=O)(=O)C2=C(C(C)C)N=NC2(C)C)cc1 readout_type=TGI result="> 100 µM"
compound="CC1COS(=O)O1 (stereo not given)" readout_type=TGI result="> 100 µM"
compound="CC(=O)OC(CCC1(C)OC1COc1ccc(CCNC(=O)C=C(C)C)cc1)C(C)(C)OC(C)=O (stereo not given)" readout_type=TGI result="> 100 µM"
compound=NC(=O)c1cn(Cc2ccccc2)c(=O)n1Cc1ccccc1 readout_type=TGI result="> 100 µM"
compound=COc1ccc(/C(Cl)=C(\C#N)c2ccc(OC)c(OC)c2)cc1OC readout_type=TGI result="> 100 µM"
compound=NCCCOc1cc2ccccc2cc1C(=O)NCCCOc1cc2ccccc2cc1C(=O)Nc1ccc(Cl)cc1O readout_type=TGI result="2.88 µM"
compound=O=C1C=CC(=CC=C2C=CN(CCCCCCCCCCC(=O)NCCCCCCCCCCCC(=O)O)C=C2)C=C1 readout_type=TGI result="> 100 µM"
compound="CCCCC1Cc2cc(O)ccc2-c2nc3cc(O)ccc3n21 (stereo not given) (tested in a mixture with another compound)" readout_type=TGI result="26.3 µM"
compound=COc1ccc(CNc2nc(NC3CCCCC3)nc(NC3CCCCC3)n2)cc1 readout_type=TGI result="> 100 µM"
compound=O=Cc1ccc(-c2ccc(-c3ccc(CO)s3)o2)s1 readout_type=TGI result="> 100 µM"
compound=N#Cc1cc2c(cc1Cl)Sc1nnc(Nc3ccccc3)n1S2(=O)=O readout_type=TGI result="6.66 µM"
compound="COc1cc(/C=C/C(=O)C(C(=O)/C=C/c2ccc(OC(=O)CCNC34CC5CC(CC(C5)C3)C4)c(OC)c2)C(=O)CCNC23CC4CC(CC(C4)C2)C3)ccc1OC(=O)CCNC12CC3CC(CC(C3)C1)C2 (stereo not given)" readout_type=TGI result="15.9 µM"
compound=CCC(=O)OCN(C)c1nc(N(C)COC(=O)CC)nc(N(C)COC(=O)CC)n1 readout_type=TGI result="> 100 µM"
compound=CCCC(=O)[O-].CCCC(=O)[O-].NCCN.NCCN.[Co+3].[O-][Cl+3]([O-])([O-])[O-] readout_type=TGI result="> 100 µM"

* * *

System: RPMI-8226 leukemia
Assay: NCI tumour cell line growth inhibition, 48 h; in the data active means GI50 below about 0.43 µM; inactive means the rest
Outcome codes: TRUE = active, FALSE = inactive

compound=Oc1ccc(N=Nc2nccs2)c(O)c1 category=FALSE
compound="C=C1C(O)C2C(=C(C)C13CC3)C(=O)C(C)(C)C2OC (stereo unspecified)" category=FALSE
compound="NC(=O)CNc1ccc([As]=[As]c2ccc(NCC(N)=O)cc2)cc1 (stereo unspecified)" category=FALSE
compound="CCOC(=O)C1=C(N)Oc2c(sc3c(C)cccc23)C1c1ccc(F)cc1 (stereo unspecified)" category=FALSE
compound=C=CCn1c(SCC(=O)Nc2ccc(C(=O)/C=C/c3cc(OC)c(OC)c(OC)c3)cc2)nnc1-c1ccc(OC)cc1 category=TRUE
compound=O=C1c2ccccc2C(=O)c2c(NCCN=Cc3ccccc3O)cccc21 category=FALSE

* * *

System: UACC-257 melanoma
Experiment: NCI tumour cell line growth inhibition, 48 h
Each entry below lists one item and its recorded TGI value.
READOUT TYPE: TGI (µM)

structure=C[P+](C)(C)c1ccccc1 study_system="UACC-257 melanoma" reading_qualifier=> quantitative_readout=100
structure=C/C(=N\NC(=S)N1CCCC1)c1nc2ncccc2[nH]1 study_system="UACC-257 melanoma" reading_qualifier== quantitative_readout=10.7
structure=CCOC(=O)c1c(OCC)[nH]c(=O)c(C(c2cccs2)c2c(O)c(C(=O)OCC)c(OCC)[nH]c2=O)c1O study_system="UACC-257 melanoma" reading_qualifier== quantitative_readout=36.9
structure=Cc1cc(NCCCCNc2ccnc3cc(Cl)ccc23)nc(Nc2ccc(C(=O)N3CCCCC3)cc2)n1 study_system="UACC-257 melanoma" reading_qualifier== quantitative_readout=3.42

* * *

Test system: ACHN renal
Test: NCI tumour cell line growth inhibition, 48 h
READOUT TYPE: TGI (µM)

compound=O=C1c2ccccc2C(=O)N1C/C=N/NS(=O)(=O)c1ccc(Br)cc1 readout_type=TGI reading_qualifier=> quantitative_readout=100
compound=CC1(C)OP(=O)(O)C=C1Sc1ccc([N+](=O)[O-])cc1[N+](=O)[O-] readout_type=TGI reading_qualifier=> quantitative_readout=100
compound=O=C(CCN1CCOCC1)Nc1cccc(-n2cc(-c3ccncc3)c(-c3ccc(Cl)c(O)c3)n2)c1 readout_type=TGI reading_qualifier== quantitative_readout=12.5
compound="COc1cc(/C=C/C(=O)C(C(=O)/C=C/c2ccc(OC(=O)CCNC34CC5CC(CC(C5)C3)C4)c(OC)c2)C(=O)CCNC23CC4CC(CC(C4)C2)C3)ccc1OC(=O)CCNC12CC3CC(CC(C3)C1)C2 (centres undefined)" readout_type=TGI reading_qualifier== quantitative_readout=34.1

* * *

System: UACC-257 melanoma
Assay: NCI tumour cell line growth inhibition, 48 h; in the data active = GI50 below about 0.43 µM; inactive = the rest
Outcome codes: t (active), f (inactive)

compound=COc1cc2c3c(n(CCCN(CCO)CCO)c(=O)c2cc1OC)-c1cc2c(cc1C3=O)OCO2 category=f
compound=COc1ccc(-c2nn(-c3cccc(Cl)c3)cc2-c2nc(N)[nH]c(=O)c2C#N)cc1 category=f
compound=O=C(NC1CCCCC1)c1ccc(Nc2ncnc3c2cnn3-c2ccccc2)cc1 category=f
compound=Nc1c(C(=O)Nc2ccccc2Cl)sc2nc3c(cc12)C(=O)CCC3 category=f
compound=COc1ccc(-c2noc(N)c2-c2cc(OC)c3c(c2)OCO3)cc1 category=f
compound=CN1C(NNC(=O)c2cccnc2)=NS(=O)(=O)c2cc(Cl)ccc21 category=f
compound=CC(=O)[CH-]C(=O)c1ccccc1.CC(=O)[CH-]C(=O)c1ccccc1.O=S(=O)([O-])c1cc([O-])c2c([O-])cc(S(=O)(=O)[O-])cc2c1.[Na+].[Ti+4] category=f
compound=COc1ccc(-c2ccc(NNC(=O)c3ccc(F)cc3)nn2)cc1OC category=f
compound="CNC(C)[C@H]1CCC2C3CC=C4C(=O)[C@@H](NC(=O)C=C(C)C)CC[C@]4(C)C3CC[C@@]21C (stereo partly specified)" category=f
compound=c1ccc2c(c1)c1ccccc1c1ccccc21 category=f
compound=O=C(N[C@@H](Cc1coc2ccccc12)B(O)O)[C@@H]1C[C@H]2CC[C@@H]1O2 category=f
compound=COc1cc(C(=O)O[C@H](C(N)=O)[C@]2(C)CO2)c2cccc(C)c2c1 category=f
compound=CNCCn1c(=O)c2cc(OC)c(OC)cc2c2cnc3cc4c(cc3c21)OCO4 category=t
compound=Cc1cc(NCCCCNc2ccnc3cc(Cl)ccc23)nc(Nc2ccc(C(=O)N3CCCCC3)cc2)n1 category=f
compound="COc1cc(/C=C/C(=O)C(C(=O)/C=C/c2ccc(OC(=O)CCNC34CC5CC(CC(C5)C3)C4)c(OC)c2)C(=O)CCNC23CC4CC(CC(C4)C2)C3)ccc1OC(=O)CCNC12CC3CC(CC(C3)C1)C2 (stereo unspecified)" category=f
compound=CN(C)CCNc1nc2ccccc2c2c(=O)c3cc(F)ccc3sc12 category=f

* * *

Test system: MCF7 breast
Assay: NCI tumour cell line growth inhibition, 48 h
READOUT TYPE: GI50

compound=O=C1c2ccccc2C(=O)c2c(NCCN=Cc3ccccc3O)cccc21 readout_type=GI50 result="1570 nM"
compound="CCOC(=O)C1=C(N)Oc2c(sc3c(C)cccc23)C1c1ccc(F)cc1 (stereo not drawn)" readout_type=GI50 result="470 nM"
compound=O=C(N[C@@H](Cc1coc2ccccc12)B(O)O)[C@@H]1C[C@H]2CC[C@@H]1O2 readout_type=GI50 result="3250 nM"
compound=NCCCOc1cc(Cl)ccc1NC(=O)c1cc2ccccc2cc1OCCCN readout_type=GI50 result="1620 nM"
compound=O=C(N/N=C/c1ccc(O)cc1O)c1cccnc1 readout_type=GI50 result="1940 nM"
compound=COc1cc2c3c(n(CCCN(CCO)CCO)c(=O)c2cc1OC)-c1cc2c(cc1C3=O)OCO2 readout_type=GI50 result="< 10 nM"
compound=CNCCn1c(=O)c2cc(OC)c(OC)cc2c2cnc3cc4c(cc3c21)OCO4 readout_type=GI50 result="< 10 nM"
compound=COc1cc(C(=O)O[C@H](C(N)=O)[C@]2(C)CO2)c2cccc(C)c2c1 readout_type=GI50 result="< 36.7 nM"
